Give kon for every item shown.
Study Target: T1, T3.30: Biotin-LC linker-GVYKS[PO3H2]PVVSGDTS[PO3H2]PRHL-NH2 (reading uncertain; also: printed as Biotin-LC linker-GVYKS[PO3H2]PVVSGDTS[PO3H2]PRHL-NH2)
T1 construct: Human Tau 393-408 with an added N-terminal Gly; two lots used: MI89P9-P12-2 (64% pure) and MI89P9-P12-3 (87% pure); also called Phospho-tau peptide; phosphopeptide T3.30
T1 peptide: {Biotin-LC linker}-GVYK[pS]PVVSGDT[pS]PRHL-NH2
Assay Protocol: SPR (Biacore X), T3.30 on streptavidin chip, antibody injected, 1:1 Langmuir fit; peptide lot 87% pure
[ ]: non-standard residue; d: D form. The star is where a group is joined. Biotin = O=C1N[C@H]2[C@H](CS[C@H]2CCCCC(=O)*)N1; pS = N[C@@H](COP(=O)(O)O)C(=O)O; LC linker = not defined here
The figure you give is taken to be in M⁻¹ s⁻¹; do not add the unit.

Inquiry: Please give the measured kon for this binder: ACI-35-2G5-Ab3 (antibody, IgG2b, V domains shown, Biotinylated (-BT) in the AlphaLISA and as detector in the Setup 1 ELISA; also called ACl-35-2G5-Ab3; ACl-35-2G5-AB3) VH: EVQLQQSGPELVKPGASVKISCKASGFTFTDYYMNWVKQSHGKSLEWIGDINPNNGGTSYHQKFKGKATLTVDKSSSTAYMELRSLTSEDSAVYYCVREGRFAYWGQGTLVTVSA VL: DIVMTQSQKFMSTSVGDRVSVTCKASQNVGTNVAWYQQKPGQSPKALIYSASYRYSGVPDRFTGSGSGTDFTLTISNVQSEDLAEYFCQQYNSYPYTFGGGTKLEIK
Reply text: 17000

Inquiry: Please give the measured kon for this binder: ACI-35-2A1-Ab1 (antibody, IgG2b, V domains shown, Biotinylated (-BT) in the AlphaLISA and as detector in the Setup 1 ELISA; also called ACl-35-2A1-Ab1; hybridoma A4-2A1-18) VH: EVQLQQSGPELVKPGASVKISCKASGYTFTDYYMNWVKQSHGKSLEWIGDINPNNGGTSYNQKFKGKATLTVDKSSSTAYMELRSLTSEDSAVYYCVREGRFAYWGHGTLVTVSA VL: DIVMTQAAPSVPVTPGESVSISCRSSKSLLHSNGNTYLYWFLQRPGQSPQLLIHRMSNLASGVPDRFSGSGSGTAFTLRISRVEAEDVGVYYCMQHLKSPYTFGGGTKLEIK
Reply text: 27000

Inquiry: Please give the measured kon for this binder: ACI-35-4A6-Ab1 (antibody, IgG2b, V domains shown, also called ACl-35-4A6-Ab1; hybridoma A4-4A6-18) VH: QVQLQQPGAELLKPGASVKLSCKASGYTFTSYWMHWVKQRPGRGLEWIGRIDPNSDRTKYNEKFKRKATLTVDKSSSTAYMQLSSLTSEDSAVYYCARDDYAWFAYWGQGTLVTVSA VL: DVLMTQTPLSLPVSLGDQASISCRSSQSIVHSNGNTYLEWYLQKPGQSPKLLIYKLSNRFSGVPDRFSGSGSGTDFTLKISRVEAEDLGVYYCFQGSHVPPTFGGGTKLEIK
Reply text: 110000

Inquiry: Please give the measured kon for this binder: ACI-35-2G5-Ab1 (antibody, IgG2a, V domains shown, also called ACl-35-2G5-Ab1; ACl-35-2G5-AB1) VH: QVQLKQSGAELVRPGASVKLSCKASGYTFTDYYINWVKQRPGQGLEWIARIYPGRGNIYYNEKFKGKATLTAEKSSSTAYMQLSSLTSEDSAVYFCARFWDVTYWGQGTLVTVSA VL: DVLMTQTPLSLPVSLGDQASISCRSSQSIVHSNGNTYLEWFLQKPGQSPKLLIYKVSNRFSGVPDRFSGSGSGTDFTLKISRVEAEDLGVYYCFQGSHVPYTFGGGTKLEIK
Reply text: 32000

Inquiry: Please give the measured kon for this binder: ACI-35-2G5-Ab2 (antibody, IgG2b, V domains shown, also called ACl-35-2G5-Ab2; ACl-35-2G5-AB2) VH: EVQLQQSGPELVKPGASVKISCKASGFTFTDYYMNWVKQSHGKSLEWIGDINPNNGGTSYHQKFKGKATLTVDKSSSTAYMELRSLTSEDSAVYYCVREGRFAYWGQGTLVTVSA VL: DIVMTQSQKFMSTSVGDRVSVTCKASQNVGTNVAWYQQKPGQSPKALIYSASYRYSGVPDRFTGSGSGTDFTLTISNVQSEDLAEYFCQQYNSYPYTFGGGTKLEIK
Reply text: 24000
